System: Kunming mice
Test: Influence on autonomic activity of normal mice (ZIL-2 mice autonomic activity meter, counts within 10 min)
Format: in vivo
Conditions: intragastric, 25 mg/kg, 2 h after administration, x ± s, n = 10, 25 mg/kg
Times of activities in 2 h after drug administration/10 min for assorted molecules

Answered cases to consult:
Prompt: Supply measured Times of activities in 2 h after drug administration/10 min of COc1cc(OC)c2c(=O)cc(-c3ccc(OC)c(OC)c3)oc2c1 [Example 7, 5,7,3′,4′-tetramethoxyl-flavone] in your reply.
Completion: 234.1 ± 45.8 /10 min

Prompt: Given COc1ccc(C2CC(=O)c3c(O)c(OC)c(OC)c(OC)c3O2)cc1OC (stereo not drawn) [Example 64] , respond with its Times of activities in 2 h after drug administration/10 min.
Completion: 310.9 ± 55.9 /10 min

More entries:
Prompt: Give the value of Times of activities in 2 h after drug administration/10 min reported for the following: COc1cc(OC)c2c(=O)cc(-c3ccc(OC)c(OC)c3)oc2c1 [Example 36]
Completion: 310.8 ± 51.5 /10 min

* * *

Test system: Kunming mice
Assay: Influence on hypnosis effect with pentobarbital sodium doses below the threshold (25 mg/kg i.p.)
Type: in vivo
Conditions: test drug 50 mg/kg intragastric single dose, pentobarbital sodium 25 mg/kg i.p. 60 min later, sleep observed in 30 min, n = 10
Marks after values point to notes of the source that are not given here.
Consider the following compounds and their measured rate of sleeping (%) readings.

Below, 3 compounds whose answers are already recorded.
Prompt: Given COc1cc(OC)c2c(=O)cc(-c3ccc(OC)c(OC)c3)oc2c1 [Example 36] , respond with its rate of sleeping (%).
Completion: 40* %

Prompt: // fetch rate of sleeping (%) given entry N#Cc1cc(-c2cc(=O)c3c(N)cc(F)cc3o2)ccc1O [Example 37]
Completion: 60** %

Prompt: Consider the compound COc1ccc(C2CC(=O)c3c(O)c(OC)c(OC)c(OC)c3O2)cc1 (centres unmarked) [Example 42] and give its recorded rate of sleeping (%).
Completion: 80*** %

New cases:
Prompt: Give a short answer stating reported rate of sleeping (%) for CC=Cc1c(C(=O)O)cc2c(=O)cc(-c3ccc(F)c(C#N)c3)oc2c1C(=O)O [Example 34] .
Completion: 40* %

Prompt: State its rate of sleeping (%): COc1ccc(C2CC(=O)c3c(OC)c(OC)c(OC)c(OC)c3O2)cc1 (centres unmarked) [Example 47, 5,6,7,8,4′-penta methoxyl-flavanone]
Completion: 70** %

Prompt: For the compound COc1ccc(-c2cc(=O)c3c(O)c(OC)c(OC)c(OC)c3o2)cc1OC [Example 11] , report rate of sleeping (%).
Completion: 60** %

Prompt: Report rate of sleeping (%) for COc1ccc(C2CC(=O)c3cc(OC)c(OC)c(OC)c3O2)cc1OC (centres unmarked) [Example 45, 6,7,8,3′,4′-penta methoxyl-flavanone]
Completion: 60** %

* * *

System: Kunming mice
Experiment: Influence on hypnosis effect with pentobarbital sodium doses at the threshold (50 mg/kg i.p.)
Type: in vivo
Conditions: 100 mg/kg intragastric single dose, pentobarbital sodium 50 mg/kg i.p. 60 min later, x ± s, n = 10
time to sleep listing for selected compounds.
Write down the numeric answer in min and omit the unit.

Worked examples, 4 compounds total:
Prompt: Tell me measured time to sleep for `COc1ccc(-c2cc(=O)c3c(OC)c(OC)c(OC)c(OC)c3o2)cc1OC` please.
Completion: 3.93

Prompt: Specify reported time to sleep for the compound shown: `C#Cc1ccc(-c2cc(=O)c3cc(F)c(C(=O)O)c(O)c3o2)cc1CCCCCCCCCCCCCCCCCCCC`
Completion: 3.82

Prompt: Fill in time to sleep for record COc1cc(OC)c2c(=O)cc(-c3ccccc3O)oc2c1OC [Example 3, 2′-hydroxyl-5,7,8-trimethoxyl-flavone]
Completion: 3.86

Prompt: Given the compound `CC=Cc1cc(C(=O)O)c2c(=O)cc(-c3ccc(C#N)c(C(=O)O)c3)oc2c1` , write its reported time to sleep.
Completion: 4.92

Now, please, on to the next compound.
Prompt: For the compound CC=Cc1cc(I)cc2c1OC(c1cccc(C(=O)O)c1)CC2=O (centres unmarked) , give its measured time to sleep value.
Completion: 2.32
